Target: Elastase from human neutrophils (Homo sapiens, UniProt P08246)
Sequence (P08246 30-267): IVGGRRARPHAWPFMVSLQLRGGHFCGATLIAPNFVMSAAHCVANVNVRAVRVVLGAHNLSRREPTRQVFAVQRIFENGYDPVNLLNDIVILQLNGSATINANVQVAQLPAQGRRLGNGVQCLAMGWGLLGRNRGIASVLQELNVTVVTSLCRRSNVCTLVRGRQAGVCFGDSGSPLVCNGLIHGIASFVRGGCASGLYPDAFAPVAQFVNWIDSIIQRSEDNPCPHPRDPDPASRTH
Test: Enzymatic assay, elastase
Details: Elastase IC50
pIC50: −log10 of the molar value. Where a SMILES comes first, the peptide text is derived from it.
A collection of compounds and their measured pIC50

{"columns": ["COMPOUND", "TARGET_OR_SYSTEM", "RESULT_MODIFIER", "pIC50"],
 "data": [
  ["CC[C@H](C)[C@@H]1NC(=O)[C@@H]2CCCN2C(=O)[C@@H]2CCCN2C(=O)[C@H](CC(=O)O)NC(=O)[C@H](CO)NC(=O)[C@H](CCCCN)NC(=O)[C@H]([C@@H](C)O)NC(=O)[C@@H]2CSSC[C@H](NC1=O)C(=O)N[C@@H](CC(=O)O)C(=O)N1CCC[C@@H]1C(=O)N1CCC[C@H]1C(=O)N[C@@H](Cc1ccccc1)C(=O)N2 [Ex. 2] (HELM PEPTIDE1{F.C.T.K.S.D.P.P.I.C.D.[dP].P}$PEPTIDE1,PEPTIDE1,2:R3-10:R3|PEPTIDE1,PEPTIDE1,1:R1-13:R2$$$V2.0)", "Elastase from human neutrophils (Homo sapiens, UniProt P08246)", "<", 4.00],
  ["CCCC[C@@H]1NC(=O)[C@@H]2CCCN2C(=O)[C@H]2CCCN2C(=O)[C@H](Cc2ccc(O)cc2)NC(=O)[C@H](CCCNC(=N)N)NC(=O)[C@H](CCC(N)=O)NC(=O)[C@@H]2CCCN2C(=O)[C@@H]2CCCN2C(=O)[C@H]([C@@H](C)CC)NC(=O)[C@H](CO)NC(=O)[C@H](C)NC(=O)[C@H]([C@@H](C)O)NC(=O)[C@H](CCC(N)=O)NC1=O [Ex. 107] (HELM PEPTIDE1{[Nle].Q.T.A.S.I.P.P.Q.R.Y.[dP].P}$PEPTIDE1,PEPTIDE1,1:R1-13:R2$$$V2.0)", "Elastase from human neutrophils (Homo sapiens, UniProt P08246)", "=", 7.29]
]}
